Each entry below carries its recorded PC:TC32 (cellular selectivity).
- Tested on: TC32 Ewing sarcoma cells, expressing EWS-FLI1
- procedure summary: Growth inhibition assay, TC32 cells
- Type: cell-based
- condition set: ratio of GI50 PC3 to TC32
parameter measured: PC:TC32 (cellular selectivity)

{"compound": "CNC(=O)[C@H](Cc1c[nH]c2ccccc12)NC(=O)CO/N=C(\\[C@@H](O)[C@@H](C)O)[C@@H](OC)[C@@H]1Cc2cc3cc(O[C@H]4C[C@@H](O[C@H]5C[C@@H](O)[C@H](O)C(C)O5)[C@H](O)C(C)O4)c(C)c(O)c3c(O)c2C(=O)[C@H]1O[C@H]1C[C@@H](O[C@H]2C[C@@H](O[C@H]3C[C@](C)(O)[C@H](O)C(C)O3)[C@H](O)C(C)O2)[C@H](O)C(C)O1 (stereo partly drawn)", "parameter measured": "PC:TC32 (cellular selectivity)", "meas value": 11.8}
{"compound": "COC(C(=NOCC(=O)NC(Cc1c[nH]c2ccccc12)C(=O)NCCc1c[nH]c2ccccc12)C(O)C(C)O)C1Cc2cc3cc(OC4CC(OC5CC(O)C(O)C(C)O5)C(O)C(C)O4)c(C)c(O)c3c(O)c2C(=O)C1OC1CC(OC2CC(OC3CC(C)(O)C(O)C(C)O3)C(O)C(C)O2)C(O)C(C)O1 (stereo not drawn)", "parameter measured": "PC:TC32 (cellular selectivity)", "meas value": 2.6}
{"compound": "COC(C(=NOCC(=O)NCc1ccc2[nH]ccc2c1)C(O)C(C)O)C1Cc2cc3cc(OC4CC(OC5CC(O)C(O)C(C)O5)C(O)C(C)O4)c(C)c(O)c3c(O)c2C(=O)C1OC1CC(OC2CC(OC3CC(C)(O)C(O)C(C)O3)C(O)C(C)O2)C(O)C(C)O1 (stereo not drawn)", "parameter measured": "PC:TC32 (cellular selectivity)", "meas value": 20.1}
